TEST TARGET: Transient receptor potential cation channel subfamily V member 1 (Homo sapiens)
ASSAY PROCEDURE: Antagonist activity at human TRPV1 expressed in CHO cells assessed as inhibition of capsaicin-induced 45Ca2+ uptake incubated for 5 mins by liquid scintillation counting analysis
Format: cell-based
QUANTITY KIND: Ki (nM)

>  <MOLECULE>
CC1CCN(c2nc(C(F)(F)F)ccc2CNC(=O)NC(C)c2ccc(NS(C)(=O)=O)c(F)c2)CC1 (configuration not stated)

>  <QUANTITATIVE RESULT>
28.1

$$$$
>  <MOLECULE>
CC1CCN(c2nc(C(F)(F)F)ccc2CNC(=O)N(C)c2ccc(NS(C)(=O)=O)c(F)c2)CC1

>  <QUANTITATIVE RESULT>
59

$$$$
>  <MOLECULE>
CC1CCN(c2nc(C(F)(F)F)ccc2CCNC(=O)C(C)c2ccc(NS(C)(=O)=O)c(F)c2)CC1 (configuration not stated)

>  <QUANTITATIVE RESULT>
95

$$$$
>  <MOLECULE>
CC1CCN(c2nc(C(F)(F)F)ccc2CNC(=O)Nc2ccc(CNS(C)(=O)=O)c(F)c2)CC1

>  <QUANTITATIVE RESULT>
12.5

$$$$
>  <MOLECULE>
CC1CCN(c2nc(C(F)(F)F)ccc2CNC(=O)Nc2ccc(NS(C)(=O)=O)c(F)c2)CC1

>  <QUANTITATIVE RESULT>
149

$$$$
>  <MOLECULE>
CC1CCN(c2nc(C(F)(F)F)ccc2CNC(=O)C(C)c2ccc(CNS(C)(=O)=O)c(F)c2)CC1 (configuration not stated)

>  <QUANTITATIVE RESULT>
27.6

$$$$
>  <MOLECULE>
CC1CCN(c2nc(C(F)(F)F)ccc2CNC(=O)NCc2ccc(CNS(C)(=O)=O)c(F)c2)CC1

>  <QUANTITATIVE RESULT>
199

$$$$

###

TEST TARGET: Transient receptor potential cation channel subfamily V member 1 (Homo sapiens)
ASSAY PROCEDURE: Displacement of [3H]-resiniferatoxin from human TRPV1 expressed in CHO cells incubated for 60 mins by scintillation counting analysis
Assay type: cell-based

>  <COMPOUND>
CC1CCN(c2nc(C(F)(F)F)ccc2CNC(=O)Nc2ccc(CNS(C)(=O)=O)c(F)c2)CC1

>  <Ki (nM)>
6.77

$$$$
>  <COMPOUND>
CC1CCN(c2nc(C(F)(F)F)ccc2CNC(=O)C(C)c2ccc(CNS(C)(=O)=O)c(F)c2)CC1 (centres undefined)

>  <Ki (nM)>
230

$$$$
>  <COMPOUND>
CC1CCN(c2nc(C(F)(F)F)ccc2CCNC(=O)Nc2ccc(NS(C)(=O)=O)c(F)c2)CC1

>  <Ki (nM)>
210

$$$$
>  <COMPOUND>
CC1CCN(c2nc(C(F)(F)F)ccc2CNC(=O)NC(C)c2ccc(NS(C)(=O)=O)c(F)c2)CC1 (centres undefined)

>  <Ki (nM)>
31.6

$$$$
>  <COMPOUND>
Cc1cccc(N(C(=O)NCc2ccc(C(F)(F)F)nc2N2CCC(C)CC2)c2ccc(NS(C)(=O)=O)c(F)c2)c1

>  <Ki (nM)>
490

$$$$
>  <COMPOUND>
CC1CCN(c2nc(C(F)(F)F)ccc2CNC(=O)Nc2ccc(NS(C)(=O)=O)c(F)c2)CC1

>  <Ki (nM)>
83

$$$$
>  <COMPOUND>
CC1CCN(c2nc(C(F)(F)F)ccc2CNC(=O)NCc2ccc(CNS(C)(=O)=O)c(F)c2)CC1

>  <Ki (nM)>
410

$$$$
>  <COMPOUND>
CC1CCN(c2nc(C(F)(F)F)ccc2CNC(=O)N(C)c2ccc(NS(C)(=O)=O)c(F)c2)CC1

>  <Ki (nM)>
1160

$$$$
>  <COMPOUND>
CC1CCN(c2nc(C(F)(F)F)ccc2CCNC(=O)C(C)c2ccc(NS(C)(=O)=O)c(F)c2)CC1 (centres undefined)

>  <Ki (nM)>
54

$$$$

###

TEST TARGET: Transient receptor potential cation channel subfamily V member 1 (Homo sapiens, UniProt Q8NER1)
Sequence (Q8NER1 whole entry): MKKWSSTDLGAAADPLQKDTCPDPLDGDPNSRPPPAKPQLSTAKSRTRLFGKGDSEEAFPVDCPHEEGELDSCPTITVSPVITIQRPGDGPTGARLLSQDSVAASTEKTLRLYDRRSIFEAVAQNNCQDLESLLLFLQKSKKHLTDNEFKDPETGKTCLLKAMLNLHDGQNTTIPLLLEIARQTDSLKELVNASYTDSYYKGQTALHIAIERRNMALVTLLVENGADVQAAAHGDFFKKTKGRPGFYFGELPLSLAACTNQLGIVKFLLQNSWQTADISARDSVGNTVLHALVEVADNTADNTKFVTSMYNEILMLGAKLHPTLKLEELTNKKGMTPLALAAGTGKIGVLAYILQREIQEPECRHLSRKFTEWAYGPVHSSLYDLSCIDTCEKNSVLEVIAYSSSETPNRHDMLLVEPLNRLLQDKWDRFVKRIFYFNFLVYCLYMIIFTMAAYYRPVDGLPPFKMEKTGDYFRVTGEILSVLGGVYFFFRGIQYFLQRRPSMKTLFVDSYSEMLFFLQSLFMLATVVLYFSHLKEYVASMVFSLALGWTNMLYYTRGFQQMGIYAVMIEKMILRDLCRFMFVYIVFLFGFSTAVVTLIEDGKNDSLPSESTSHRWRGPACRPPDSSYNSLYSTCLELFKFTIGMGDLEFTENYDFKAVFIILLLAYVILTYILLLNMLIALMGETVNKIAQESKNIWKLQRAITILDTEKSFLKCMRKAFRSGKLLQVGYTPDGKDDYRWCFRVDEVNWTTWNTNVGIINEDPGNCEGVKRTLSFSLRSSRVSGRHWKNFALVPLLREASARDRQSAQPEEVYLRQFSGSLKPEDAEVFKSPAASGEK
ASSAY PROCEDURE: Antagonist activity at human TRPV1 expressed in CHO cells assessed as inhibition of capsaicin-induced 45Ca2+ uptake preincubated for 15 mins prior to capsaicin challenge measured after 5 mins by liquid scintillation counting analysis
Type: cell-based
QUANTITY KIND: Ki

>  <SMILES CODE>
Cc1cccc(N(C(=O)NCc2ccc(C(F)(F)F)nc2N2CCC(C)CC2)c2ccc(NS(C)(=O)=O)c(F)c2)c1

>  <QUANTITY KIND>
Ki

>  <RESULT>
2200 nM

$$$$

###

TEST TARGET: Transient receptor potential cation channel subfamily V member 1 (Homo sapiens)
ASSAY PROCEDURE: Agonist activity at human TRPV1 expressed in CHO cells assessed as 45Ca2+ uptake incubated for 5 mins by liquid scintillation counting analysis
Format: cell-based
QUANTITY KIND: EC50

>  <COMPOUND>
CC1CCN(c2nc(C(F)(F)F)ccc2CNC(=O)Nc2ccc(NS(C)(=O)=O)c(F)c2)CC1

>  <RESULT>
Not Active

$$$$
>  <COMPOUND>
CC1CCN(c2nc(C(F)(F)F)ccc2CCNC(=O)C(C)c2ccc(NS(C)(=O)=O)c(F)c2)CC1 (stereo not drawn)

>  <RESULT>
Not Active

$$$$
>  <COMPOUND>
CC1CCN(c2nc(C(F)(F)F)ccc2CNC(=O)N(C)c2ccc(NS(C)(=O)=O)c(F)c2)CC1

>  <RESULT>
Not Active

$$$$

###

TEST TARGET: Transient receptor potential cation channel subfamily V member 1 (Homo sapiens)
ASSAY PROCEDURE: Antagonist activity at human TRPV1 expressed in CHO cells assessed as inhibition of capsaicin-induced 45Ca2+ uptake preincubated for 30 mins prior to capsaicin challenge measured after 5 mins by liquid scintillation counting analysis
Assay type: cell-based
pKi: −log10 of the molar value.
QUANTITY KIND: pKi

>  <SMILES CODE>
Cc1cccc(N(C(=O)NCc2ccc(C(F)(F)F)nc2N2CCC(C)CC2)c2ccc(NS(C)(=O)=O)c(F)c2)c1

>  <QUANTITY KIND>
pKi

>  <QUANTITATIVE RESULT>
6.07

$$$$

Taken from ChEMBL document CHEMBL3822433.
